Each record here notes measured kon.
# testSystem: T1, human programmed cell death protein 1 (hPD-1) C93S (aa 24-167) (Homo sapiens, UniProt Q15116, C93S)
# T1 construct: made as a fusion with a TEV site and human Fc; the Fc was cut off with TEV protease; source: Expi293F, purified (Protein A, TEV cleavage of Fc, SEC; monomer fractions); not shown: Fc (human), C-terminal, cleaved
# T1 sequence (Q15116 24-167 C93S): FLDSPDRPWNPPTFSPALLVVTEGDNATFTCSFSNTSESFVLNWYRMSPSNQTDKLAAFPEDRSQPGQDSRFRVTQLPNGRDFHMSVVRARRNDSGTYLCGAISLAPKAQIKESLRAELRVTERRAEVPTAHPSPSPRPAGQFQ
# methodNotes: SPR; Carterra LSA; Fab from the ammonium sulfate precipitate of the culture supernatant immobilised on a NiHC200M chip; hPD-1 (1-1024 nM) or mPD-1-Fc (4-1024 nM) as analyte, fourfold dilution series, no regeneration; HBS-EP pH 7.4, 25 °C; medians over the spots of a construct, KD = koff/kon
# conditionSet: one partner purified
Write the number in M⁻¹ s⁻¹ without appending the unit.

Reference set (2 entries):
Req: I have this binder here, toripalimab Fab L.S28Y (Fab, V domains shown, as the heavy chain of Sm3; light chain of Sm3 with this change; numbers count from the chain's first residue; source: Brevibacillus, culture supernatant (ammonium sulfate precipitate); not shown: 6xHis, C-terminal, kept; 6xHN, C-terminal, kept) VH: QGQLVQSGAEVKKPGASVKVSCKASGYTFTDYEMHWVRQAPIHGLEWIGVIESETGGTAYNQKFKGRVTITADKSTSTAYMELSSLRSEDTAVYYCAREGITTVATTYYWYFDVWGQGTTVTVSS VL: DVVMTQSPLSLPVTLGQPASISCRSSQYIVHSNGNTYLEWYLQKPGQSPQLLIYKVSNRFSGVPDRFSGSGSGTDFTLKISRVEAEDVGVYYCFQGSHVPLTFGQGTKLEIK , and I need its recorded kon.
Resp: 12600

Req: I have this binder here, toripalimab Fab L.V99D (Fab, V domains shown, as the heavy chain of Sm3; light chain of Sm3 with this change; numbers count from the chain's first residue; source: Brevibacillus, culture supernatant (ammonium sulfate precipitate); not shown: 6xHis, C-terminal, kept; 6xHN, C-terminal, kept) VH: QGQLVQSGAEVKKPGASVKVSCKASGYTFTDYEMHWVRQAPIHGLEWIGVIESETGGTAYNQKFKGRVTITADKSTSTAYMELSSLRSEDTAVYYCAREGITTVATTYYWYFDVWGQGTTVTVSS VL: DVVMTQSPLSLPVTLGQPASISCRSSQSIVHSNGNTYLEWYLQKPGQSPQLLIYKVSNRFSGVPDRFSGSGSGTDFTLKISRVEAEDVGVYYCFQGSHDPLTFGQGTKLEIK , and I need its recorded kon.
Resp: 11100

Consider the record given below.
Req: I have this binder here, toripalimab Fab L.P100G (Fab, V domains shown, as the heavy chain of Sm3; light chain of Sm3 with this change; numbers count from the chain's first residue; source: Brevibacillus, culture supernatant (ammonium sulfate precipitate); not shown: 6xHis, C-terminal, kept; 6xHN, C-terminal, kept) VH: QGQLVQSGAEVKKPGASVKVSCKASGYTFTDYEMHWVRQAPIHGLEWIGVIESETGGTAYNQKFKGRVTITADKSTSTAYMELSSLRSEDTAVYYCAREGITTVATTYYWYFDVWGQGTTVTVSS VL: DVVMTQSPLSLPVTLGQPASISCRSSQSIVHSNGNTYLEWYLQKPGQSPQLLIYKVSNRFSGVPDRFSGSGSGTDFTLKISRVEAEDVGVYYCFQGSHVGLTFGQGTKLEIK , and I need its recorded kon.
Resp: 7550
